assay: in vitro; conditions: human, hela cells, % viability
Exercise: for every item that follows, state its recorded viability at 28.5 h, 10 µM.
Unit % implied. Number only.

Recorded viability at 28.5 h, 10 µM (compound O=C(CN1CCC(c2ccccc2F)CC1)NCc1ccco1 [CBK283550] ): 88.3

Kindly note the recorded viability at 28.5 h, 10 µM for OCc1ccc(-c2nccnc2NCC2CC2)cc1 [CBK037334] , which is 86

Entry CCOC(=O)c1c(-c2ccc(C)o2)csc1NC(=O)CN1C(=O)c2ccccc2C1=O [CBK267699] ; viability at 28.5 h, 10 µM = 85.1

For this compound ( CC(=O)Nc1ccc(CCOc2nccnc2-c2ccccc2)cc1 [CBK106683] ), measured viability at 28.5 h, 10 µM is 96.3

Kindly note the recorded viability at 28.5 h, 10 µM for CC(C)[C@H](NC(=O)Cc1n[nH]c(=O)c2ccccc12)C(=O)O [CBK286607] , which is 95.2

Record COc1ccc(C(=O)N(CCC#N)Cc2ccco2)cc1 [CBK304862] , field viability at 28.5 h, 10 µM: 93.5

Field viability at 28.5 h, 10 µM (entry Cc1cc(C)nc(N2CCC(C(=O)NCc3ccc(Cl)cc3)CC2)n1 [CBK136319] ) reads 94.8

// recorded viability at 28.5 h, 10 µM for O=C(Nc1ccc(Cl)cc1)Nc1ccc(OCC(O)CN2CCCCC2)cc1 (stereo not shown) [CBK086101] : 99.4

Entry under test: NC(=O)NCc1ccc(F)cc1 [CBK019769] . Its viability at 28.5 h, 10 µM was 110

Form: compound = Cc1ccc(S(=O)(=O)N=C2NCN(CC(=O)O)CN2)cc1 [CBK261983N] ; viability at 28.5 h, 10 µM = 93.6

----------
assay: in vitro; settings: human, hela cells, % viability
Exercise: state measured viability at 28.5 h, 10 µM for each of the compounds provided.
Give just the number in %; leave the unit off.

Please fill in: viability at 28.5 h, 10 µM reported for CCCCc1nc(CS(=O)(=O)C(C)c2nc(C(C)C)no2)cs1 (stereo not shown) [CBK305707] = 88.3

Per the records, this compound ( CCOC(=O)CN1CCN(C(=O)Nc2ccccc2OC(F)(F)F)CC1 [CBK043656] ) has viability at 28.5 h, 10 µM equal to 97

# viability at 28.5 h, 10 µM of Cc1nc2c(C(=O)NCCCN3CCCC3=O)cnn2c(C)c1Cc1cccc(F)c1 [CBK162104] = 101

// field: viability at 28.5 h, 10 µM; key: Cc1ccc(NC(=O)N(Cc2ccc(-c3ccccc3)cc2)CC(C)(C)CN)c(C)c1 [CBK002428C] ; value = 94.9

Lab book: viability at 28.5 h, 10 µM of CCN(CC)C(=O)c1[nH]c2ccccc2c1NS(=O)(=O)c1cc(Br)ccc1OC [CBK050113] noted as 92.6

Record summary for CC(=O)C1=C(O)C(=O)N(CCCO)C1c1cccc([N+](=O)[O-])c1 (stereo not shown) [CBK263753] : reported viability at 28.5 h, 10 µM = 92.6

Summary for this compound, CC(C)c1nc(-c2cc3ccccc3nc2O)no1 [CBK287964] : viability at 28.5 h, 10 µM is 112

Measured viability at 28.5 h, 10 µM of C[C@H](Nc1nc(-c2cc(C(F)(F)F)cc(C(F)(F)F)c2)cnc1N)c1ccccc1 [CBK063768] : 106

The recorded viability at 28.5 h, 10 µM for entry CC1CCCC(C)N1CC(O)COCc1ccc2c(c1)OCO2 (stereo not shown) [CBK263134C] equals 86.3

Entry CCCC(=O)N1CCC(c2nc3ccccc3cc2NC(C)=O)CC1 [CBK285258] — recorded viability at 28.5 h, 10 µM = 78.4

The value of viability at 28.5 h, 10 µM measured for the compound N#CCCN(Cc1ccccc1)C(=O)c1ccccc1[N+](=O)[O-] [CBK264434] turned out to be 92.6

// sample Cc1ccc(C(=O)Nc2nc3ccc4nc(C)sc4c3s2)cc1 [CBK287305] , its viability at 28.5 h, 10 µM was 91.8

Entry CCc1c(C)c2cc(Cl)c(O)c(CN3CCCC3)c2oc1=O [CBK267099] , viability at 28.5 h, 10 µM reported as 105

Noted for O=C(CSc1nnc(-c2ccccc2)c(-c2ccccc2)n1)Nc1ccc([N+](=O)[O-])cc1 [CBK263406] : its viability at 28.5 h, 10 µM reads 109

response.value for CC1(C)CC(N(Cc2c[nH]cn2)Cc2ccccc2F)CC(C)(C)N1 [CBK282579] (field: viability at 28.5 h, 10 µM) = 92.9

The measured viability at 28.5 h, 10 µM associated with Cc1cc(NCC2CCCO2)n2ncc(-c3ccccc3)c2n1 (stereo not shown) [CBK304530] reads 83.8

Looking up c1ccc2c(c1)N1CCCN=C1N2CCN1CCOCC1 [CBK278300C] , I found its viability at 28.5 h, 10 µM recorded as 108

Data point: O=C(OCCc1cccnc1)N1CCC(C(F)(F)F)CC1 [CBK200159] ; viability at 28.5 h, 10 µM = 94.9

The measured viability at 28.5 h, 10 µM associated with COc1ccc(CCCNC(=N)N)cc1Cl [CBK261404G] reads 93.4

Sure, the documented viability at 28.5 h, 10 µM for O=C(CSc1nnc(-c2ccncc2)[nH]1)c1ccc(O)cc1O [CBK264353] is 102

Quick note, viability at 28.5 h, 10 µM for CCCn1cnc2sc(C(=O)Nc3ccc(C)cc3C)c(C)c2c1=O [CBK071815] landed at 84.6

The recorded viability at 28.5 h, 10 µM for entry CC(=O)N1CCN(C(=O)C2C(C(=O)O)C2(C)C)CC1 (stereo not shown) [CBK287021] equals 102

// recorded viability at 28.5 h, 10 µM for O=C(c1ccccn1)N1C2CCC1CC(O)(c1ccco1)C2 (stereo not shown) [CBK284034] : 87

The reported viability at 28.5 h, 10 µM of the compound Cc1nn(C(C)C)c(C)c1CN1CCN(C2CCCCC2)C(=O)C1 [CBK282562] was 109

// viability at 28.5 h, 10 µM value for CN(C)CCn1c(=O)[nH]c2ncc(-c3ccco3)nc21 [CBK064251] : 97.1

// viability at 28.5 h, 10 µM value for CCc1nnc(NC(=O)COC(=O)CSc2nc(C)cc(C)n2)s1 [CBK018792] : 90.9

Looking up COC(=O)[C@@H]1CN(C(=O)Nc2ccccc2)CCN1S(C)(=O)=O [CBK289611] , I see its viability at 28.5 h, 10 µM listed as 96.9

Data point: Cn1nccc1CNCc1cc(Br)ccc1Cl [CBK305100] ; viability at 28.5 h, 10 µM = 88.3

// field: viability at 28.5 h, 10 µM; key: COc1cccc(CN2CCCC(NC(=O)c3ccccc3Cl)C2)c1 (stereo not shown) [CBK306774] ; value = 117

Entry O=C(NCCc1nc2cccnc2n1-c1ccccc1)c1ccncc1 [CBK288599] ; viability at 28.5 h, 10 µM = 90.7

// viability at 28.5 h, 10 µM value for CCOc1ccc(-c2cn(C(=O)Nc3ccccc3)nc2N)cc1 [CBK267317] : 90.3

The compound identified as CCCS(=O)(=O)Nc1nccnc1N1CCN(c2cnccn2)CC1 [CBK048828] registered its viability at 28.5 h, 10 µM at 85.5

viability at 28.5 h, 10 µM in this record for S=C(Nc1ccccc1)c1ccccc1 [CBK005397] : 100

Input Cc1cc(C)c(OCCNC(C)(C)C)c(Cl)c1 [CBK262713C] . Output viability at 28.5 h, 10 µM: 93.2

Form: compound = COc1ccc(OC)c(NC(=O)CNC(=O)c2ccccc2F)c1 [CBK267846] ; viability at 28.5 h, 10 µM = 91.5

viability at 28.5 h, 10 µM in this record for CCNc1n[nH]c(N)c1-c1nc(-c2ccc(OC)cc2)no1 [CBK288557] : 94.2

The compound listed as O=S(=O)(c1ccc(Cl)c(Cl)c1)N1CCOCC1 [CBK043794] has a reported viability at 28.5 h, 10 µM of 90.7

Reported viability at 28.5 h, 10 µM of O=C1CC(SCCc2nc3ccccc3[nH]2)C(=O)N1c1ccc(F)cc1 (stereo not shown) [CBK267500] : 88.8

Noted for COCCN(C(=O)CCC(=O)NCCc1ccccc1)C1CCN(C)CC1 [CBK014576] : its viability at 28.5 h, 10 µM reads 96.9

Quick note, viability at 28.5 h, 10 µM for O=C(O)CCCn1cc(NC(=O)Cc2ccccc2)cn1 [CBK269821] landed at 93.9
